# Test system: HT29 colon
# ASSAY OVERVIEW: NCI tumour cell line growth inhibition, 48 h
READOUT: TGI (µM)
State the answer as a number, implicitly in µM.

1) Cc1oc2nc[nH]c(=O)c2c1C(=O)/C=C/c1ccc(Br)cc1 :: 6.3
2) COc1cc(/C=C\c2cc(/C=C\c3ccc(O)c(OC)c3)n(C(=O)COc3ccccc3)n2)ccc1O :: 6.35
3) CCCCCCCCCCCCCC(=S)N/C=C/OC :: 50.1

# context switch: different molecule, same TGI
What value of TGI on HT29 colon does "CCCCCCCCCCCCCCCC[N+](C)(C)Cc1ccc(F)cc1" have? 5.78
